# assay.details: SEC-MALS, molecular mass and oligomeric state
# Assay type: physicochemical, C. elegans
measurement.kind: oligomeric state

molecule	result
PID-3^RRM: PID-3 RRM domain, residues 196–274 (protein, left off: His6, N-terminal, state not stated | GST, N-terminal, state not stated) PRGADQENMLKISGYPGMLNTFGIAQLLTPYRVNGITITGAQSAVVALENKFQVYQAVQDFNGKKLDRNHKLQVSSLVV	homodimers
ERH-2: full-length C. elegans ERH-2 (protein, UniProt Q20057 1-113, looked up, full-length) MSTSSHTVLLIQTSPRLDSRTWGDYESVTDALDALCKMFEDFLSKKSAAPVTYDVSQVYEFLDKLSDVSMMIFNRETGQYIGRTRAWIKQQVYEMMRGRCQHPEGGEKVIVGY	homodimers
